- experimental.system: Human ALPPL2 (Homo sapiens, UniProt P10696)
- Sequence (P10696 with tags, fused parts or gaps): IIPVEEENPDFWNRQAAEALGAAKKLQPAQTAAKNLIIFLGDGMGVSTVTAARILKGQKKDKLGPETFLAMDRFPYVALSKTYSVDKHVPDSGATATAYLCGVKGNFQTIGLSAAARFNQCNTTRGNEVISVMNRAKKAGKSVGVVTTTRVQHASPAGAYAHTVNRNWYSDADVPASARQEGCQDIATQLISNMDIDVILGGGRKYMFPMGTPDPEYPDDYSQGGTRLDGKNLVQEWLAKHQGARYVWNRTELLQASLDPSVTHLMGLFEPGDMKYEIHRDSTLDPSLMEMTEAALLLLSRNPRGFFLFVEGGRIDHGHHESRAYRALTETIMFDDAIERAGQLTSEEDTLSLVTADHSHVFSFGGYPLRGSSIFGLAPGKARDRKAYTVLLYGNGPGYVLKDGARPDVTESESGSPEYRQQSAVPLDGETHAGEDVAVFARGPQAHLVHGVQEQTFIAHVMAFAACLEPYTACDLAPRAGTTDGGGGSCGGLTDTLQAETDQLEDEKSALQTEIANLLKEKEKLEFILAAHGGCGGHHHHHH
- run.description: BLI binding kinetics, human ALPPL2 immobilised on AR2G sensors (KD / KD apparent)
- condition.set: VHH domains
Kindly state hALPPL2 Ka for each of the entries shown.
Give bare numbers, in M⁻¹ s⁻¹.

These recorded examples may help you get a feel for the data.
B01: ALPP/ALPPL2 targeting VHH domain, SEQ ID NO: 20 (protein) VHH: QVQLVESGGGLVQAGGSLRLSCEVTRSPMPIDTMAWYRQAPGRQRELVAIISRSGSTNYADSVKGRFTISRNDTKSTMYKSTMYLKMNTLELEDTGVYYCNAVGLWNGAEYWGQGTQVTVSS	482000
C07: ALPP/ALPPL2 targeting VHH domain, SEQ ID NO: 25 (protein) VHH: QVQLVESGGGLVQAGESLRLACAASGTIFSGNAVGWYRQAPEKQREWVSSITDYGDTDYAEAVKGRFTISRDNAKNTVYLQMNSLKPEDTAVYYCYVYQRGESEEYWGQGTQVTVSS	471000

Can you share its hALPPL2 Ka? I mean this molecule: A06: ALPP/ALPPL2 targeting VHH domain, SEQ ID NO: 17; tested C-terminally His-tagged (protein, C-terminal His tag, tested C-terminally His-tagged) VHH: QVHLVESGGGLVQAGGSLRLSCAASGRTFLSMGWFRQAPGKEREFVAAISWTGGSTGYADSVKGRFTISRESDKETMYLQMNSLKPEDTAVYYCAARGDVYYGGDDATRYKYWGQGTQVTVSS 133000
